Values from PubChem BioAssay (NCI)

experiment: NCI Yeast Anticancer Drug Screen. Data for the cln2 rad14 strain (AID 165);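 also: 0% = growth equal to vehicle treated cultures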; settings: S. cerevisiae cln2 rad14 strain, at 50.0 µM, hits give high values
Compounds without any hit were thinned out: in the full panel of roughly 79,000, 15% have a hit.
PROPERTY: growth inhibition (%)
# unit: % | format: bare number

**Q:** Any idea what growth inhibition was measured for CN(CCC(=O)O)C1=Nc2ccc(Cl)cc2C(c2ccccc2)=[N+]([O-])C1 ?
**A:** -1.4

**Q:** Any idea what growth inhibition was measured for NC(=O)Nc1cc(NC(N)=O)cc(N(CCCl)CCCl)c1 ?
**A:** -7.15

**Q:** Any idea what growth inhibition was measured for COc1ccc(-n2c(C)nc3ccccc3c2=O)cc1CN(CCCl)CCCl ?
**A:** -22.1

**Q:** Any idea what growth inhibition was measured for CN1CCC[N+](C)=C1c1ccc(N(C)C)cc1 ?
**A:** -14.2

**Q:** Any idea what growth inhibition was measured for CN(N)/N=N/c1nc[nH]c1[N+](=O)[O-] ?
**A:** 4.85

**Q:** Any idea what growth inhibition was measured for CC(C)N(C(C)C)[PH+]1O[PH+](N(C(C)C)C(C)C)O[PH+](N(C(C)C)C(C)C)O[PH+](N(C(C)C)C(C)C)O[PH+](N(C(C)C)C(C)C)O1.[C-]#[O+].[C-]#[O+].[C-]#[O+].[C-]#[O+].[C-]#[O+].[C-]#[O+].[C-]#[O+].[Cr].[Cr] (stereo not given) ?
**A:** -0.75

**Q:** Any idea what growth inhibition was measured for COc1nc(N2CCNCC2)nc2c1CCCC2 ?
**A:** 17.8

**Q:** Any idea what growth inhibition was measured for Cc1ccc2c(c1)C(=S)N1CSCC1c1nncn1-2 (stereo not given) ?
**A:** 20.9

**Q:** Any idea what growth inhibition was measured for N#CC1OC1c1cccnc1 (stereo not given) ?
**A:** 20.6

**Q:** Any idea what growth inhibition was measured for CCOP(N)(=O)SC (stereo not given) ?
**A:** -12.8

---

test: NCI Yeast Anticancer Drug Screen. Data for the cln2 rad14 strain (AID 165);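 also: 0% = growth equal to vehicle treated cultures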; conditions: S. cerevisiae cln2 rad14 strain, at 50.0 µM, hits give high values
About 79,000 compounds went through this panel and 15% of them were active in at least one assay; those are over-represented in the sample as a whole.
Provide the recorded growth inhibition for the entries that follow.
# unit: % | format: bare number

**Q:** Any idea what growth inhibition was measured for CCCN(CCC)CCc1ccc(OC2=CCN(C)CC2)cc1 ?
**A:** 16.6

**Q:** Any idea what growth inhibition was measured for S=C(N=Nc1ccccc1)NNc1ccccc1.[Cu+2] ?
**A:** 1.8

**Q:** Any idea what growth inhibition was measured for [CH3][Sb]1([CH3])([I])[CH2]CC[CH2]1 ?
**A:** -11.1

**Q:** Any idea what growth inhibition was measured for C[C@]12CC[C@H]3[C@@H](CCC4=C(Br)C(=O)CC[C@@H]43)[C@@H]1CC[C@@H]2O ?
**A:** -19.6

**Q:** Any idea what growth inhibition was measured for CCCCOP(=O)(/C=C/c1cccs1)OCCCC ?
**A:** 7.95

**Q:** Any idea what growth inhibition was measured for Oc1ccccc1C=NCCN=Cc1ccccc1O.[Cu] ?
**A:** -36.4

---

assay: NCI Yeast Anticancer Drug Screen. Data for the sgs1 mgt1 strain (AID 161);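 also: 0% = growth of cultures given vehicle only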; settings: S. cerevisiae sgs1 mgt1 strain, at 50.0 µM, hits give high values
The panel holds about 79,000 compounds, 15% with a hit somewhere; the sample as a whole holds those more often.
Binary classification by growth inhibition, with -10% as an inclusive lower bound for Criterion met; all other cases are Criterion not met.

**Q:** Entry CCC[CH2][Sn]([CH2]CCC)([O]C(=O)CN)[O]C(=O)CN : is its growth inhibition no less than -10%?
**A:** Criterion met

**Q:** Entry CC[N+]1(CC)CC[N+](CC)(CC)CC1 (tested in a mixture with another compound) : is its growth inhibition no less than -10%?
**A:** Criterion met

**Q:** Entry CCCCn1c(C)c(C(=O)OCC)c2cc(OCc3ccc(C(=O)Nn4c(C)ccc4C)cc3)c(Br)cc21 : is its growth inhibition no less than -10%?
**A:** Criterion not met

**Q:** Entry CCCN(CCC)CCc1ccc(OC2=CCN(C)CC2)cc1 : is its growth inhibition no less than -10%?
**A:** Criterion met

**Q:** Entry O=P(Nc1ccccc1)(Oc1ccccc1)N(CCCl)CCCl (stereo not given) : is its growth inhibition no less than -10%?
**A:** Criterion met

**Q:** Entry O=C(Oc1cc(Cl)c(S(=O)(=O)F)cc1Cl)c1ccc([N+](=O)[O-])cc1 : is its growth inhibition no less than -10%?
**A:** Criterion met

**Q:** Entry [CH3][Sn]([CH3])([n]1cnc(N)nc1=O)[n]1cnc(N)nc1=O : is its growth inhibition no less than -10%?
**A:** Criterion not met

**Q:** Entry CCC(=O)c1ccc(OC)c(OC)c1 : is its growth inhibition no less than -10%?
**A:** Criterion met

**Q:** Entry CCC(Br)(CC)C(=O)NC(N)=O : is its growth inhibition no less than -10%?
**A:** Criterion not met

**Q:** Entry NCc1c[nH]c2ccccc12 : is its growth inhibition no less than -10%?
**A:** Criterion not met

**Q:** Entry C=C(C(=C)P(=S)(C(C)C)C(C)C)P(=S)(C(C)C)C(C)C : is its growth inhibition no less than -10%?
**A:** Criterion met

**Q:** Entry O=C(Nc1cccc(Cl)c1)Oc1ccc(S(=O)(=O)F)cc1Cl : is its growth inhibition no less than -10%?
**A:** Criterion met

**Q:** Entry Clc1cc[c]([Sb]2([c]3ccc(Cl)cc3)([c]3ccc(Cl)cc3)[O]C(C(Cl)(Cl)Cl)[O]2)cc1 (stereo not given) : is its growth inhibition no less than -10%?
**A:** Criterion met

**Q:** Entry Cc1ccc(SCC(CSCCO)OCn2cnc3c2NC(N)=NC32OCCO2)cc1 (stereo not given) : is its growth inhibition no less than -10%?
**A:** Criterion not met

**Q:** Entry CC(=O)OCC1OC(S[As](C)C)C(OC(C)=O)C(OC(C)=O)C1OC(C)=O (stereo not given) : is its growth inhibition no less than -10%?
**A:** Criterion met

---

experiment: NCI Yeast Anticancer Drug Screen. Data for the bub3 strain (AID 167); conditions: S. cerevisiae bub3 mutant strain, at 50.0 µM
Compounds without any hit were thinned out: in the full panel of roughly 79,000, 15% have a hit. Active and inactive are the calls of the source. Cut-off read from the data, not from the text of the source: active = growth inhibition above about 70%; inactive = the rest.
Pick one and only one: active, inactive

**Q:** Please share the test call associated with Cc1cc(=O)oc2cc(OC(=O)N(C)C)c(Cl)cc12 .
**A:** inactive

**Q:** Please share the test call associated with CCOP(=O)(OCC)/C(C#N)=C/c1cccs1 .
**A:** inactive

**Q:** Please share the test call associated with CCCOC(C(=O)OC1CCC2CCC1N2C)(c1ccccc1)c1ccccc1 (stereo unspecified) .
**A:** inactive

**Q:** Please share the test call associated with CC(C)CC1C(=O)NCCC(NC(=O)C(N)Cc2ccc(O)cc2)C(=O)NC(Cc2ccccc2)C(=O)NC(Cc2ccccc2)NC1=O (stereo unspecified) .
**A:** inactive

**Q:** Please share the test call associated with CC1CCC2C(C)C(=O)OC3OC4(C)CCC1C32OO4 (stereo unspecified) .
**A:** inactive

**Q:** Please share the test call associated with CC1=C[C@H]2O[C@@H]3[C@H](OC(=O)CCl)[C@@H](O)[C@](C)(C2(COC(=O)CCl)CC1)[C@@]31CO1 (stereo partly specified) .
**A:** active

**Q:** Please share the test call associated with CN(CCC#N)c1ccc(C=C(C#N)C#N)cc1 .
**A:** inactive

**Q:** Please share the test call associated with COC(=O)C1c2cc(OC)c(OC)cc2C(=O)N2CCc3cc4c(cc3C12)OCO4 (stereo unspecified) .
**A:** inactive

**Q:** Please share the test call associated with COc1ccc(C2=CCN(c3ccc(C)cc3)P(=O)(N(CCCl)CCCl)O2)cc1 (stereo unspecified) .
**A:** active

**Q:** Please share the test call associated with COc1ccc2c(=O)c3ccccc3oc2c1CN(CCCl)CCCl .
**A:** inactive

**Q:** Please share the test call associated with CCC1CC[Si](C)(C)CC12C(=O)NC(=O)NC2=O (stereo unspecified) .
**A:** inactive

**Q:** Please share the test call associated with C[N+](C)(C)CC1(COC(=O)C(O)(c2ccccc2)c2ccccc2)CCCCC1 .
**A:** inactive

**Q:** Please share the test call associated with O=Cc1ccccc1.[C-]#[O+].[C-]#[O+].[C-]#[O+].[Cr] .
**A:** inactive

**Q:** Please share the test call associated with OC(c1ccc2ccccc2n1)C1CCCCN1 (stereo unspecified) .
**A:** inactive

**Q:** Please share the test call associated with N#CC1OC1c1cccnc1 (stereo unspecified) .
**A:** inactive

**Q:** Please share the test call associated with CC(C)C(O)(C(=O)OCC1=CCN2CCC(O)C12)C(C)O (stereo unspecified) .
**A:** inactive
